Growth Rate for assorted molecules
Tested on: Fibroblast
test: Incucyte cell viability with human fibroblast; also: unitless GR value; below 1 slowed growth and below 0 cell loss
Type: toxicity, cell-based
particulars: 24 h, 10 µM, compound concentration 10 uM, replicate number 2

inputSmiles | Growth Rate
CN1CCCN(C(=O)c2cccc(-c3ccc(/C=C4/C(=O)Nc5ccc(Cl)cc54)o3)c2)CC1 | -0.63
Cc1cccc(F)c1C(=O)Nc1cnc(-c2cc3c(cc2Cl)OC(F)(F)O3)cn1 | 0.26
Cc1cccc(CC(=O)N2CCc3c2ccc(-c2cn(C)c4ncnc(N)c24)c3F)n1 | 0.58
Cc1c(N2CCCC2)nc2ccc(Br)cc2c1C(=O)NC[C@H](CCC(=O)O)c1ccccc1Cl | 0.89
